System: L1210 tumor cells
Assay: MTS:PMS viability assay at day 4 in vitro, L1210
Type: cell-based
Settings: MTS:PMS assay at day 4 in vitro, means ± SD, n = 3
TEST_READOUT: IC50 (µM)
Quick reminder: number only, in µM, skip the unit.

compound O=C1C=CC(=O)c2cc3cc(CBr)ccc3cc21 [AQ9] , IC50 observed: 0.026

---

Tested on: L1210 cells
Experiment: Inhibition of L1210 cells by TT24
Assay type: cell-based
TEST_READOUT: IC50 (nM)
Quick reminder: number only, in nM, skip the unit.

molecule CNC1=CC(=O)C2=C(C1=O)C1C3=C(C(=O)C(Br)=C(OC)C3=O)C2c2ccccc21 (stereo not shown) , IC50 observed: 48

---

Test system: L1210 tumor cells
Experiment: MTS:PMS viability assay at day 4 in vitro, L1210
Format: cell-based
Conditions: Mus musculus, L1210, 96 h; MTS:PMS assay at day 4 in vitro, means ± SD, n = 3
TEST_READOUT: IC50 (nM)
Quick reminder: number only, in nM, skip the unit.

compound O=C1C=CC(=O)c2cc3cc(CO)ccc3cc21 [AQ10, 6-(hydroxymethyl)-1,4-anthracenedione] , IC50 observed: 37
